molecular target: Beta Secretase enzyme (BACE) (Homo sapiens (Human), UniProt P56817); experiment: In vitro enzymatic BACE FRET assay; assay type: biochemical; conditions: read-out: BACE1 Enzyme assay IC50
Sequence (P56817 46-501): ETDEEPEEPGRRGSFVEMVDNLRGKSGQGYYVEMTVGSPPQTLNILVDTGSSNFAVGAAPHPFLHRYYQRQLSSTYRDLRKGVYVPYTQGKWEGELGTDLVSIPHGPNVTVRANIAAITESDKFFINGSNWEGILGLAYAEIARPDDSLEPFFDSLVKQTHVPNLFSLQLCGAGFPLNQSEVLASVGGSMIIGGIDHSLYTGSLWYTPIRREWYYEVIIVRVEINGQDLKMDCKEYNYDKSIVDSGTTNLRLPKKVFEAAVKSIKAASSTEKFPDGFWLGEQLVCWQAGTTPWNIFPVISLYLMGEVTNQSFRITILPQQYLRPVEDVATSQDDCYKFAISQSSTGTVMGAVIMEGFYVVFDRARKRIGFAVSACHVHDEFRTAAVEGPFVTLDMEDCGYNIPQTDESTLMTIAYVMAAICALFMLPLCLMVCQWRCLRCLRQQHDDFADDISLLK
quantity-measured: pIC50
Keep in mind that pIC50 stands for -log10 of concentration in molar terms.

Solved entries:
{"columns": ["compound", "pIC50"],
 "data": [
  ["N#Cc1cnc2c(Nc3ccc(Cl)c([C@]4(C(F)F)N=C(N)O[C@H]5C[C@H]54)c3)ncc(F)c2c1 [Example 351]", 5.55],
  ["NC1=N[C@@](c2cc(NCC3(C(F)(F)F)CC3)ccc2F)(C(F)F)[C@H]2C[C@H]2O1", 5.68]
]}

// query pIC50 value for entry C#CCOc1cnc(C(=O)Nc2cc(F)c(F)c([C@@]3(C(F)F)N=C(N)O[C@@H]4C[C@@H]43)c2)cn1 [Example 115]
8.68

// query pIC50 value for entry CC(C)Oc1cnc(C(=O)Nc2ccc(F)c([C@@]3(C(F)F)N=C(N)O[C@@H]4C[C@@H]43)c2)cn1
6.14

// query pIC50 value for entry Cn1cc2ccnc(Nc3ccc(F)c([C@@]4(C(F)F)N=C(N)O[C@@H]5C[C@@H]54)c3)c2n1
5.68

// query pIC50 value for entry COc1cnc(C(=O)Nc2ccc(Cl)c([C@@]3(CF)N=C(N)O[C@@H]4C[C@@H]43)c2)c(Cl)c1
6.91

// query pIC50 value for entry Cn1nc(C(F)F)cc1C(=O)Nc1ccc(F)c([C@@]2(C(F)F)N=C(N)O[C@@H]3C[C@@H]32)c1
6.62

// query pIC50 value for entry NC1=N[C@](c2cc(NC(=O)c3ccc(Cl)cn3)ccc2Cl)(C(F)F)[C@@H]2C[C@@H]2O1
4.77

// query pIC50 value for entry NC1=N[C@@](c2cc(NC(=O)c3cnc(OCC4CCCC4)cn3)ccc2F)(C(F)F)[C@H]2C[C@H]2O1
7.58
